// provenance: patent US20100240656A1

Test system: WI-38
ASSAY NAME: Cell proliferation by MTT method, WI-38
Format: cell-based
SETUP CONDITIONS: Homo sapiens, 72 h; WI-38, incubation 3 days
ENDPOINT LABEL: EC50 (µM)

{"INPUT SMILES": "NCCCCCn1c(Sc2cc3c(cc2I)OCO3)nc(C(N)=O)c1N", "TEST TARGET": "WI-38", "ENDPOINT LABEL": "EC50", "UNIT ABBREVIATION": "µM", "NUMERIC RESULT": 27.7}

* * *

System: MCF-7
ASSAY NAME: Cell growth inhibition by AlamarBlue method, MCF-7
Assay type: cell-based, human
SETUP CONDITIONS: MCF-7, 72 hours; read-out: Cell growth inhibition values (EC50) obtained with AlamarBlue method

{"COMPOUND": "CC(C)N(CCCn1c(Cc2cc3c(cc2I)OCO3)nc(C(N)=O)c1N)C(=O)OC(C)(C)C [Example 44]", "EC50": "18.8 µM"}

* * *

The molecules listed here are annotated with their IC50.
TEST TARGET: UniProt:P07900

{"INPUT SMILES": "CC(C)NCCCn1c(Sc2cc3c(cc2I)OCO3)nc(C(N)=O)c1N", "IC50 [µM]": 0.5}
{"INPUT SMILES": "CSc1cc2c(cc1Sc1nc(C(N)=O)c(N)n1C)OCO2", "IC50 [µM]": 4}
{"INPUT SMILES": "CC(=O)Nc1c(C(N)=O)nc(Sc2cc3c(cc2I)OCO3)n1CCCNC(C)C", "IC50 [µM]": 200}
{"INPUT SMILES": "CC(C)N(CCCn1c(Cc2cc3c(cc2I)OCO3)nc(C(N)=O)c1N)C(=O)OC(C)(C)C", "IC50 [µM]": 3.2}
{"INPUT SMILES": "Cn1c(Sc2nc3cccc(Cl)c3s2)nc(C(N)=O)c1N", "IC50 [µM]": 3.1}
{"INPUT SMILES": "CCCCn1c(Sc2nc3cccc(Cl)c3s2)nc(C(N)=O)c1N", "IC50 [µM]": 2.76}
{"INPUT SMILES": "CSc1cc2c(cc1Sc1nc(C(N)=O)c(N)n1C)CCO2", "IC50 [µM]": 13}
{"INPUT SMILES": "CCCCn1c(Sc2cc(OC)ccc2OC)nc(C(N)=O)c1N", "IC50 [µM]": 200}
{"INPUT SMILES": "Cn1c(Sc2cc3c(cc2Br)OCC3)nc(C(N)=O)c1N", "IC50 [µM]": 5}
{"INPUT SMILES": "CCCCn1c(Sc2cc3c(cc2I)OCO3)nc(C(N)=O)c1N", "IC50 [µM]": 1.7}
{"INPUT SMILES": "Cn1c(Sc2cc3c(cc2S(C)(=O)=O)OCO3)nc(C(N)=O)c1N", "IC50 [µM]": 8}

* * *

Test system: HCT-116
ASSAY NAME: Cell growth inhibition by AlamarBlue method, HCT-116
Type: cell-based
SETUP CONDITIONS: Homo sapiens; HCT-116, 72 hours; read-out: Cell growth inhibition values (EC50) obtained with AlamarBlue method
pEC50: −log10 of the molar value.
ENDPOINT LABEL: pEC50

{"INPUT SMILES": "CC(C)NCCCn1c(Sc2cc3c(cc2I)OCO3)nc(C(N)=O)c1N", "ENDPOINT LABEL": "pEC50", "NUMERIC RESULT": 5.52}
{"INPUT SMILES": "Cc1c(N)c(C(N)=O)nn1Cc1cc2c(cc1Br)OCO2", "ENDPOINT LABEL": "pEC50", "NUMERIC RESULT": 4.68}
{"INPUT SMILES": "CCC(=O)Nc1c(C(N)=O)nn(Cc2cc3c(cc2Br)OCO3)c1C", "ENDPOINT LABEL": "pEC50", "NUMERIC RESULT": 5.68}
{"INPUT SMILES": "CCSc1cc2c(cc1Sc1nc(C(N)=O)c(N)n1CCCN(CC)CC)OCO2", "ENDPOINT LABEL": "pEC50", "NUMERIC RESULT": 5.92}
{"INPUT SMILES": "C=Cc1cc2c(cc1Sc1nc(C(N)=O)c(N)n1C)OCO2", "ENDPOINT LABEL": "pEC50", "NUMERIC RESULT": 4.41}
{"INPUT SMILES": "NC(=O)c1nc(Sc2cc3c(cc2Br)OCO3)n(CCCN2CCOCC2)c1N", "ENDPOINT LABEL": "pEC50", "NUMERIC RESULT": 4.04}
{"INPUT SMILES": "CC(=O)Nc1c(C(N)=O)nn(Cc2cc3c(cc2Br)OCO3)c1C", "ENDPOINT LABEL": "pEC50", "NUMERIC RESULT": 4.52}
{"INPUT SMILES": "CCN(CC)CCCn1c(Sc2cc3c(cc2SC)OCO3)nc(C(N)=O)c1N", "ENDPOINT LABEL": "pEC50", "NUMERIC RESULT": 5.22}
{"INPUT SMILES": "CCCCn1c(Sc2cc3c(cc2I)OCO3)nc(C(N)=O)c1N", "ENDPOINT LABEL": "pEC50", "NUMERIC RESULT": 4.74}
